Data origin: PubChem BioAssay (NCI)

- Tested on: K-562 leukemia
- PROTOCOL: NCI-60 one-dose screen, 48 h (100 = growth as untreated, 0 = no growth, -100 = all killed)
- RECORDED_CONDITIONS: 10 µM unless noted
Compounds without any hit were thinned out: in the full panel of roughly 83,000, 20% have a hit.
OUTCOME_MEASURE: growth (%)
Reply with just the number (in %).

| COMPOUND | TARGET_DESC | growth [%] |
| --- | --- | --- |
| CC(=N\N=C(N)N)/C(=N/N=C(N)N)c1ccccc1 | K-562 leukemia | 91.3 |
| CC(C)(C)c1ccc(OCCOC(=O)CBr)cc1 | K-562 leukemia | 82.8 |
| C=CCSc1nnc(COc2ccc3c(C)c(Cc4ccccc4)c(=O)oc3c2C)o1 | K-562 leukemia | 96.2 |
| O=C(Nc1ccc(-n2cc(-c3ccncc3)c(-c3ccc(Cl)c(O)c3)n2)cc1)c1cc(Cl)cc(Cl)c1 | K-562 leukemia | 13.9 |
| OCC(O)C(O)CC1SCCS1 (stereo not drawn) | K-562 leukemia | 83 |
| N=C(c1ccccc1)N(Cc1ccccc1)Cc1ccccc1 | K-562 leukemia | 76.2 |
| COc1cc(-c2nn(-c3ccc(NC(=O)Nc4ccc(Cl)c(Cl)c4)cc3)cc2-c2ccncc2)ccc1Cl | K-562 leukemia | 17.2 |
| COC1NC(Cl)=C(C#N)C(C#N)(C#N)C1(C)C (stereo not drawn) | K-562 leukemia | 77.1 |
| Nc1nc(-c2cccc(Br)c2)cc(-c2cc3ccccc3oc2=O)n1 | K-562 leukemia | 104 |
| C=CCNCCC#N | K-562 leukemia | 109 |

Recorded result, C[C@]12CC[C@H]3[C@@H](CC[C@H]4C[C@@H](O)CC[C@@]43C)[C@@H]1CC(=O)C2 , growth: 94.1

Recorded result, c1ccc(-c2cn3ccnc3c(-c3ccc4ncn(C5CCCCC5)c4c3)n2)cc1 , growth: 29.4

Recorded result, Cc1ccc2c(c1)C(=O)CCS2 , growth: 114

Recorded result, Cc1ccc(C(C)C)c(OCc2ccc(C(=O)N/N=C/c3cccc(O)c3O)cc2)c1 , growth: 4.92

Recorded result, CCOc1ccc(/C=N/NC(=O)c2cccc3ccccc23)cc1OCC , growth: 80.7

----------
- System: CAKI-1 renal
- PROTOCOL: NCI-60 one-dose screen, 48 h (100 = growth as untreated, 0 = no growth, -100 = all killed)
- RECORDED_CONDITIONS: 10 µM unless noted
About 83,000 compounds went through this panel and 20% of them were active in at least one assay; those are over-represented in the sample as a whole.
OUTCOME_MEASURE: growth (%)
Reply with just the number (in %).

Some solved entries appear below for comparison.
| COMPOUND | growth [%] |
| --- | --- |
| Cc1nc2c(nnn2-c2ccccc2)c2nc(-c3ccc(Cl)cc3)oc(=O)c12 | 94.7 |
| COc1nc(OC)nc(-c2cc(C(=O)c3ccc(Br)cc3)n3cc(C)cc(C)c23)n1 | 64.8 |
| COc1ccc(C(=O)CN2C(=O)NC(c3ccccc3)(c3ccccc3)C2=O)cc1 | 93.6 |
| CC[C@@H](C)/C=C(C)/C=C/C(=O)c1c(O)c(-c2ccc(OC(=O)[C@@]34CC[C@@](C)(C(=O)O3)C4(C)C)cc2)cn(O)c1=O | -27 |
| O=C(N/N=C/c1ccccc1Cl)c1cccc2ccccc12 | 96.8 |
| CCCCCSc1ccc2nc(NC(=O)OCC)sc2c1 | 27.6 |
| COc1cc(NC(=O)CSc2nc3ccc(Cl)cc3c(=O)n2-c2ccc(F)cc2)cc(OC)c1OC | 71.5 |
| O=C(Nc1ccc(-n2cc(-c3ccncc3)c(-c3ccc(Cl)c(O)c3)n2)cc1)c1cc(Cl)cc(Cl)c1 | -32.1 |

Recorded result, CC([C@H]1CC=C2C3CCC4=C[C@@H](N(C)C)CC[C@]4(C)C3CC[C@@]21C)N(C)C (some centres undefined) , growth: -48.8

Recorded result, COc1ccc(/C=C2\CCCC3=C2N=C2SC=NN2C3c2ccc(OC)c(OC)c2)cc1OC (centres undefined) , growth: 32.5

----------
- Test system: HCC-2998 colon
- PROTOCOL: NCI-60 one-dose screen, 48 h
- RECORDED_CONDITIONS: 10 µM unless noted
This is part of a sample that, as a whole, favours compounds with a hit. Of some 83,000 tested, about 20% had one in any assay. Calls of active or inactive are those of the source. Rule for the calls: active = growth percent below 10; inactive = the rest.
Answer with one of the outcomes given here: active, inactive

| COMPOUND | DISCRETE_LABEL |
| --- | --- |
| COc1cc([C@@H]2c3cc4c(cc3[C@H](O)[C@H]3COC[C@@H]23)OCO4)cc(OC)c1OC | inactive |
| CC(C)(C)C(=O)OCOP(=O)(OCOC(=O)C(C)(C)C)C1CC(O)N(O)C1=O (stereo not given) | inactive |
| CC([C@H]1CC=C2C3CCC4=C[C@@H](N(C)C)CC[C@]4(C)C3CC[C@@]21C)N(C)C (stereo not given in full) | inactive |
| C[C@]12C=CC(=O)C=C1[C@@H](F)C[C@@H]1[C@@H]2[C@@H](O)C[C@@]2(C)[C@H]1CC[C@]2(O)C(=O)CO | inactive |
| Cc1c(Cc2ccccc2)c(=O)oc2c(C)c(OCc3n[nH]c(=S)o3)ccc12 | inactive |

Dear colleague, could you share the recorded outcome for O=C(N/N=C/c1coc2ccccc2c1=O)c1cc2oc(-c3ccccc3)cc2[nH]1 when you have a moment?
inactive

Dear colleague, could you share the recorded outcome for CC(C)(C)c1ccc([I+]c2ccc(C(C)(C)C)cc2)cc1 when you have a moment?
inactive

Dear colleague, could you share the recorded outcome for CC(=O)N1CCN(CCNC(=O)n2cc(-c3ccncc3)c(-c3ccc(O)c(Cl)c3)n2)CC1 when you have a moment?
inactive

Dear colleague, could you share the recorded outcome for CC(=O)/C(=C/c1ccc(-c2ccccc2)cc1)C(=O)c1ccccc1 when you have a moment?
inactive

Dear colleague, could you share the recorded outcome for Cc1ccccc1-n1c(C)nc2cc(NC(=O)c3ccc(Cl)cc3)ccc2c1=O when you have a moment?
inactive

Dear colleague, could you share the recorded outcome for CCOC(=O)c1sc(NS(=O)(=O)c2ccccc2)nc1C when you have a moment?
inactive

Dear colleague, could you share the recorded outcome for CCCCCCCCc1ccc(OCCOCC[N+](C)(C)CC)cc1 (tested in a mixture with another compound) when you have a moment?
inactive

Dear colleague, could you share the recorded outcome for COc1ccc(/C(=C(\c2ccccc2)[N+](=O)[O-])c2ccc(OCCN3CCCC3)cc2)cc1 when you have a moment?
inactive

Dear colleague, could you share the recorded outcome for CC(O)CN(CC(C)O)N(CC(C)O)CC(C)O (stereo not given) when you have a moment?
inactive

Dear colleague, could you share the recorded outcome for Cc1ccc(S(=O)(=O)NC(CCC(=O)Nc2ccccc2)C(=O)Nc2ccccc2)cc1 (stereo not given) when you have a moment?
active

----------
- Test system: HCT-116 colon
- PROTOCOL: NCI-60 one-dose screen, 48 h
- RECORDED_CONDITIONS: 10 µM unless noted
- Procedure: Growth inhibition of the HCT-116 human tumor cell line is measured as a screen for anti-cancer activity. Cells are grown in 96 well plates and exposed to the test compound for 48 hours. Compounds are tested at a single concentration, which is 10^-5 M for most compounds. The reported endpoint is percent growth (GI% or GIPRCNT), where numbers from 0 - 100% represent growth inhibition, and numbers from -100% - 0 represent cell death. For example, a value of 40 represents 60% growth inhibition. […]
About 83,000 compounds went through this panel and 20% of them were active in at least one assay; those are over-represented in the sample as a whole. The source made the active and inactive calls. Rule for the calls: active = growth percent below 10; inactive = the rest.
Answer with one of the outcomes given here: Yes (active), No (inactive)

Examples with answers:
| COMPOUND | DISCRETE_LABEL |
| --- | --- |
| COc1cc(-c2nn(-c3ccc(NC(=O)Nc4cc(C(F)(F)F)cc(C(F)(F)F)c4)cc3)cc2-c2ccncc2)ccc1Cl | Yes |
| O=C(OCC1CC2(Cl)C(Cl)=C(Cl)C1(Cl)C2(Cl)Cl)C1C(C(=O)OCC2CC3(Cl)C(Cl)=C(Cl)C2(Cl)C3(Cl)Cl)C2(Cl)C(Cl)=C(Cl)C1(Cl)C2(Cl)Cl (stereo unspecified) | No |
| COc1ccc(Cn2cc3c(c2-c2ccc(OC)cc2)CCc2cnoc2-3)cc1 | Yes |
| CCCCCCCCCCCCCCCCNC(=S)N/N=C/c1ccc(O)cc1O | No |
| CCOC(=O)/C(C#N)=C(/CC)OCC | No |
| O=C(O)/C(Br)=C/c1c[nH]c2ccc(Br)cc12 | No |
| Cc1ccc([C@@H]2C[C@H](O)Cc3ccccc3N2)s1 | No |
| CCn1cnc(C[C@H](NC(=O)[C@@H](NC(=O)Nc2cc(C(F)(F)F)cc(C(F)(F)F)c2)C(C)C)C(=O)OC)c1 | Yes |
| N#Cc1ccc(NC2c3ccccc3CC2O)cc1 (stereo unspecified) | No |
| O=C(N/N=C/c1coc2ccccc2c1=O)c1cc2oc(-c3ccccc3)cc2[nH]1 | No |

Dear colleague, could you share the recorded outcome for OCCN1CCCN(CCCN2c3ccccc3Sc3ccc(C(F)(F)F)cc32)CC1 when you have a moment?
No
